B1: Pistol ribozyme (parent)
chain: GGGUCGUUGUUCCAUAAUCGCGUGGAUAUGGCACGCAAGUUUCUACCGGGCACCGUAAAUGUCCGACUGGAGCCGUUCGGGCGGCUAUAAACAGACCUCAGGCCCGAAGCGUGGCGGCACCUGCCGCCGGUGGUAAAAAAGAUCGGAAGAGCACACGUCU

Variants of: B1
assay.remarks: aptazyme ON/OFF ratio, guanine; higher = stronger switching; co-transcriptional cleavage with and without guanine
metric: aptazyme ON/OFF ratio

Record excerpt, results attached:
residue.change	readout.value
U8C G9U C12U C13A	1.25
U7G U8G G9U U10C U11A C13G	1.23
U7A U8G G9C U10C U11A C12A C13A	1.17

Q. Any idea what its aptazyme ON/OFF ratio is? The variant is U7G U8A G9U U10G C12G C13G
A. 1.07

Q. For the variant U7A U8A G9U U10A C12G C13A , what aptazyme ON/OFF ratio is on record?
A. 1.2

Q. Give the measured aptazyme ON/OFF ratio of U7G U8A G9C U10C U11C C13G .
A. 1.01

Q. Which measured aptazyme ON/OFF ratio value corresponds to U7C G9C U10G U11C C12U C13G ?
A. 1.05
